- Target desc: EBP (Homo sapiens, UniProt Q15125)
- Construct: HEK293T cells were utilized as the source of EBP enzyme; endogenous in cells
- Sequence (Q15125 whole entry): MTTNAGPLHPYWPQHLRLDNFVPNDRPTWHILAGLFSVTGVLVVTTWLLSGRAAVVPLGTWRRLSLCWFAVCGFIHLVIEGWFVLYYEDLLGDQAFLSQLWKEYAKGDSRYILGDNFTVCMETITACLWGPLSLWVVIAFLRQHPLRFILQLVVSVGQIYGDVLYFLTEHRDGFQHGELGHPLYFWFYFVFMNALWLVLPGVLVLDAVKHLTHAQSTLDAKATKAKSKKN
- Test protocol: EBP Functional Assay (EBP immunoaffinity LC-MS assay)
- Details: EBP enzyme from HEK293T cells; 30 min with inhibitor, then zymosterol-d5, 37° C., 4 h; percent conversion to dehydrolathosterol-d5 by LC-APCI MRM MS
pIC50: −log10 of the molar value.
Property name: pIC50

Sample answers from the record:
compound=Cc1cc(C(F)(F)F)ncc1S(=O)(=O)N1CC2(CCN(C3CCOCC3)C2)C1 property_name=pIC50 test_value="6.60 to 7.00"
compound=COc1ccc(S(=O)(=O)N2CC3(CN(C4CCOCC4)C3)C2)c(C)n1 property_name=pIC50 test_value="6.60 to 7.00"
compound="Cc1nc(C(C)(F)F)ccc1S(=O)(=O)N1CC2(CN(C(C)C3COC3)C2)C1 (centres unmarked)" property_name=pIC50 test_value="6.60 to 7.00"

Which pIC50 is listed for Cc1nc(C(F)(F)F)ccc1S(=O)(=O)N1CC2(CN(C(C)C3COC3)C2)C1 (single isomer, unassigned) [Example 158] ? 5.40 to 6.60

Similarly, O=S(=O)(c1ccc(OC(F)F)cc1)N1CCC2(CC1)CN(C1CCOCC1)C2 ? 5.40 to 6.60

Similarly, Cc1cc(C(F)(F)F)nc(C)c1S(=O)(=O)N1CC2(CN(CC3CCOCC3)C2)C1 ? > 7.00

Similarly, O=S(=O)(c1cc(F)cc(F)c1)N1CCO[C@@]2(CCN(C3CCOCC3)C2)C1 (single isomer, unassigned) ? 6.60 to 7.00

Similarly, Cc1nc(C(F)(F)F)ccc1S(=O)(=O)N1CC2(CCN(C3CCOCC3)C2)C1 ? > 7.00

Similarly, Cc1cc(C(F)(F)F)ncc1S(=O)(=O)N1CCC2(CCN(C3CCOCC3)C2)CC1 ? > 7.00
